Answer each item with its documented inhibition at 1 h, 10 µM.
# System under test: ABCB1 (Homo sapiens)
# Sequence (P08183 whole entry): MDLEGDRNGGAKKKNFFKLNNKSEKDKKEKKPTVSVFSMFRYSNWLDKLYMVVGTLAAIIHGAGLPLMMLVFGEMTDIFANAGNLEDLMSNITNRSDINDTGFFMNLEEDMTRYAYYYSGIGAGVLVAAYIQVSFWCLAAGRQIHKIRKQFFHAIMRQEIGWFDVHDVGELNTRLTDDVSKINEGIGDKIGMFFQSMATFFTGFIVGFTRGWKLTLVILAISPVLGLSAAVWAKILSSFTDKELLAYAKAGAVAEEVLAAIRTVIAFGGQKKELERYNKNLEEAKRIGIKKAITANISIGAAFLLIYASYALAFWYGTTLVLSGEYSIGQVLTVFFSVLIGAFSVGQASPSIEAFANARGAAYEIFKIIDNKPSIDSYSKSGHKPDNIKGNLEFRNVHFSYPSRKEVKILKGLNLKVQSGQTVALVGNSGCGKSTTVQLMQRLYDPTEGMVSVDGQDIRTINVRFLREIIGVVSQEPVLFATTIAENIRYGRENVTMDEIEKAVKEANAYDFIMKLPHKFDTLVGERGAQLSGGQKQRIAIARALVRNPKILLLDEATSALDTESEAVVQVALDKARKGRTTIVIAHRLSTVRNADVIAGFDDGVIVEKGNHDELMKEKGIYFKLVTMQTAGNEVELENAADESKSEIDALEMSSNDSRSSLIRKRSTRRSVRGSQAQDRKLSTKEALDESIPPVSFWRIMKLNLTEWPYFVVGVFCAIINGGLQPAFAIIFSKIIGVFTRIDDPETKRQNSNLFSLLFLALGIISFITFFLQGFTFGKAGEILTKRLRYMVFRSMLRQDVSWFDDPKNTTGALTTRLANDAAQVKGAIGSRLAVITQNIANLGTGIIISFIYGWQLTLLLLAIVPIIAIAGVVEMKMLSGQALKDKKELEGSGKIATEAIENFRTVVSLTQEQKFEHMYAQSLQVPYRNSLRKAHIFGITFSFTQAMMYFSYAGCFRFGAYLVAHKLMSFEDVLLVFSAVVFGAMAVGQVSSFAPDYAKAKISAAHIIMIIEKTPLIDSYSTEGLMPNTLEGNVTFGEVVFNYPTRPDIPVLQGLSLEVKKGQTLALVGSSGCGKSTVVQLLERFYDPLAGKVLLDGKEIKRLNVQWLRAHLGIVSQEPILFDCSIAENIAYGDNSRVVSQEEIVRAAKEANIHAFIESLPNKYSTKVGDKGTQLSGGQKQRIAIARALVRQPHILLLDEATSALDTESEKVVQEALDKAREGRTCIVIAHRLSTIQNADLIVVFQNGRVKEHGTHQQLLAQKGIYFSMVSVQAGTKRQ
# Method notes: Inhibition of ABCB1 in human A2780/ADR cells assessed as reduction in calcein AM efflux at 10 uM pre-incubated for 30 mins before calcein AM addition and measured for 60 mins by microplate reader analysis relative to control
# Format: cell-based
# Details: probe calcein AM

Provide value of inhibition at 1 h, 10 µM for this record tested with ABCB1 (Homo sapiens): O=C(c1ccccc1)N1CCc2c([nH]c3ccccc23)C1c1ccc(Cl)cc1 (centres undefined)
< 25%

Moving on to the next molecule: c1ccc(C2NCCc3c2[nH]c2ccccc32)cc1 (centres undefined)
< 25%

Moving on to the next molecule: CC(=O)Nc1ccc(C2c3[nH]c4ccccc4c3CCN2C(=O)c2ccccc2)cc1 (centres undefined)
> 25%

Moving on to the next molecule: COc1ccc(C(=O)N2CCc3c([nH]c4ccccc34)C2c2ccc(Cl)c(Cl)c2)cc1OC (centres undefined)
> 25%
